# experimental-target: Carbonic anhydrase 9 (Homo sapiens)
# experimental-details: Inhibition of recombinant human CA9 incubated for 15 mins by phenol red dye based stopped flow CO2 hydration assay
observable: log10 of Ki (log10 of the value in µM)

{"compound": "SC(C[SeH])COCc1ccccc1 (stereo not given)", "log10 of Ki": 0.82}
{"compound": "Cc1ccc(S(=O)(=O)N[C@H](C[SeH])C(C)C)cc1", "log10 of Ki": 0.32}
{"compound": "OC(C[SeH])COCc1ccccc1 (stereo not given)", "log10 of Ki": 1.77}
{"compound": "C=CCOCC(S)C[SeH] (stereo not given)", "log10 of Ki": 1.59}
{"compound": "O[C@@H](CCl)C[SeH]", "log10 of Ki": 1.78}

====

# experimental-target: UniProt:P43166
# Sequence (P43166 whole entry): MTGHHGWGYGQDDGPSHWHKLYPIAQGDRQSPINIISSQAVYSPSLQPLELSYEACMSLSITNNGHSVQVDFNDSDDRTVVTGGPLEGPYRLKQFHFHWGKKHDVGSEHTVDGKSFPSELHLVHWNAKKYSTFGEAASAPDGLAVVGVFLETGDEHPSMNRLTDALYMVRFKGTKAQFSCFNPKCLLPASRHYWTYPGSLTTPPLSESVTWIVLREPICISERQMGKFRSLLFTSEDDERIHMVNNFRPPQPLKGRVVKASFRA
# experimental-details: Inhibition of recombinant human CA7 incubated for 15 mins by phenol red dye based stopped flow CO2 hydration assay

{"compound": "O[C@H](CCl)C[SeH]", "Ki": "> 100 µM"}
{"compound": "C=CCOCC(S)C[SeH] (stereo not given)", "Ki": "> 100 µM"}
{"compound": "COc1ccc(COCC(O)C[SeH])cc1 (stereo not given)", "Ki": "> 100 µM"}
{"compound": "O[C@@H](CCl)C[SeH]", "Ki": "> 100 µM"}
{"compound": "CC[C@H](C)[C@@H](C[SeH])NS(=O)(=O)c1ccc(C)cc1", "Ki": "> 100 µM"}
